Values compiled from paper PMC7136958.

# Test system: mdr1a
# assayExplanation: PXR target gene expression in C57BL/6 mice after FKK6 gavage
# Type: in vivo, mouse
# assaySetup: both sexes, C57BL/6J, mouse, in vivo; 500 μM, 5 doses (60 h), individual mice; read-out: mdr1a fold induction, Liver
readoutType: fold induction at 60 h, 500 µM

For the molecule C#CCC(O)(c1ccncc1)c1cc2ccccc2n1S(=O)(=O)c1ccccc1 (stereo not shown) , give its reported fold induction at 60 h, 500 µM.
1.81

====

# tgt: AhR (Homo sapiens)
# Construct: endogenous in cells; host or cells: AZ-AHR (HepG2)
# assayExplanation: AhR reporter assay, HepG2 cells stably expressing pCYP1A1 luciferase (AZ-AHR)
# Format: cell-based
# assaySetup: human; AZ-AHR cells, 100 nM, fold vs DMSO
Would you mind telling me the reported fold induction at 24 h, 0.1 µM of each entry?
Answers are plain numbers.

Cc1[nH]c2ccccc2c1C(c1c(C)[nH]c2ccccc12)c1c(C)[nH]c2ccccc12 [FKK999, reference compound] | 3.5
O=C(c1ccncc1)c1cc2ccccc2n1S(=O)(=O)c1ccccc1 | 0.7

Give reported fold induction at 24 h, 0.1 µM value for C#CCC(O)(c1ccncc1)c1cc2ccccc2n1S(=O)(=O)c1ccccc1 (stereo not drawn)
0.8

====

I'd appreciate it if you could supply FOLD INDUCTION of PXR reporter luciferase activity values for the items below.
# tgt: PXR (Homo sapiens)
# assayExplanation: PXR reporter (p3A4-luc luciferase) assay in LS180 cells transiently transfected with wild-type PXR
# assaySetup: 100 nM, 24 h, over UT
One number for each entry, in fold.

CC#CC(O)(c1ccncc1)c1cc2ccccc2n1COCC (centres unmarked) | 1.7
OC(c1ccncc1)(c1cc2ccccc2[nH]1)c1cc2ccccc2[nH]1 | 1.4

Give FOLD INDUCTION of PXR reporter luciferase activity for each of the items listed below.
1. O=S(=O)(c1ccccc1)n1c(C(O)(Cc2cc3ccccc3[nH]2)c2ccncc2)cc2ccccc21 (racemic)
2. OC(Cc1cc2ccccc2[nH]1)(c1ccncc1)c1cc2ccccc2[nH]1 (centres unmarked)
3. O=S(=O)(c1ccccc1)n1c(C(O)Cc2cc3ccccc3[nH]2)cc2ccccc21 (racemic)
4. O=S(=O)(c1ccccc1)n1c(C(O)c2ccncc2)cc2ccccc21 (racemic)
5. CCOCn1c(C(O)(Cc2cc3ccccc3[nH]2)c2ccncc2)cc2ccccc21 (racemic)
6. CC#CC(O)(c1ccncc1)c1cc2ccccc2n1S(=O)(=O)c1ccccc1 (racemic)

[1.7, 1.2, 2.3, 1.7, 1.6, 3.3]

====

# Test system: Cyp3a11
# assayExplanation: PXR target gene expression in pxr -/- mice after FKK6 gavage
# Type: in vivo, mouse
# assaySetup: pxr-/- (PXR knockout), mouse, liver, oral; 500 μM, 5 doses (60 h), mean; read-out: Cyp3a11 fold induction, Liver
readoutType: fold induction at 60 h, 500 µM

# return recorded fold induction at 60 h, 500 µM for input C#CCC(O)(c1ccncc1)c1cc2ccccc2n1S(=O)(=O)c1ccccc1 (stereo not shown) [FKK6]
1.54

====

# System: Cyp3a11
# assayExplanation: PXR target gene expression in hPXR mice (mice expressing the human PXR gene) after FKK6 gavage
# Assay type: in vivo, mouse
# assaySetup: both sexes, C57BL/6-Nr1i2tm1(NR1I2)Arte (hPXR mice), mouse, liver, oral, 500 μM, 5 doses (60 h), individual mice; read-out: Cyp3a11 fold induction, Liver
readoutType: fold induction at 60 h, 500 µM
Give bare numbers.

Supply reported fold induction at 60 h, 500 µM belonging to this molecule: C#CCC(O)(c1ccncc1)c1cc2ccccc2n1S(=O)(=O)c1ccccc1 (stereo not shown)
0.75

====

# System: mdr1
# assayExplanation: PXR target gene expression in pxr -/- mice after FKK6 gavage
# Type: in vivo, mouse
# assaySetup: pxr-/- (PXR knockout), mouse, liver, oral; 500 μM, 5 doses (60 h), mean; read-out: mdr1 fold induction, Liver
readoutType: fold induction at 60 h, 500 µM
Give bare numbers.

Entry C#CCC(O)(c1ccncc1)c1cc2ccccc2n1S(=O)(=O)c1ccccc1 (stereo not shown) [FKK6] needs its fold induction at 60 h, 500 µM filled in; supply it.
1.22

====

# tgt: AhR (Homo sapiens, UniProt P35869)
# Construct: endogenous in cells; host or cells: AZ-AHR (HepG2)
# Sequence (P35869 11-848): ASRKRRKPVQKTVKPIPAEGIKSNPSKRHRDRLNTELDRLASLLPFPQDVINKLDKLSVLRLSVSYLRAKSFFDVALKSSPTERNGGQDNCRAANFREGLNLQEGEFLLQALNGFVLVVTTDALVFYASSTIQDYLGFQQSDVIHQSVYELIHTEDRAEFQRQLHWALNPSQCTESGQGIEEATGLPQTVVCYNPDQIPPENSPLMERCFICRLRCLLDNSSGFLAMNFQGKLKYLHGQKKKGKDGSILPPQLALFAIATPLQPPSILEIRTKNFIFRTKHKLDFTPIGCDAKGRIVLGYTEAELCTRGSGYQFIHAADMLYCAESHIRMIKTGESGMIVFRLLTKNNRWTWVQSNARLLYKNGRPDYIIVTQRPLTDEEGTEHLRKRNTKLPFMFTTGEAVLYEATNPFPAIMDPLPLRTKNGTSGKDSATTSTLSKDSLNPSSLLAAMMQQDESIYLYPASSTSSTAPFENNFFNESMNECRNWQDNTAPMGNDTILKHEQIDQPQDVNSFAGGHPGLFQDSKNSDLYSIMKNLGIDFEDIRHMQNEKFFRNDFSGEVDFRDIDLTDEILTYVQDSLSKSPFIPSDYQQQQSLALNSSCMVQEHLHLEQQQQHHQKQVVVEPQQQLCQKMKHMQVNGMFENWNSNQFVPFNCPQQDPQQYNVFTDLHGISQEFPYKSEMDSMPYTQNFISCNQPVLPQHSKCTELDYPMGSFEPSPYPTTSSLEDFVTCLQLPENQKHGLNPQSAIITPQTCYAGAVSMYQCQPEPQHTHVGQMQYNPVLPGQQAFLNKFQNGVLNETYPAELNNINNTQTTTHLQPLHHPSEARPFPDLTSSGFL
# assayExplanation: AhR reporter assay, HepG2 cells stably expressing pCYP1A1 luciferase (AZ-AHR)
# Assay type: cell-based
# assaySetup: AZ-AHR cells, 1µM, fold vs DMSO
Provide the reported FOLD INDUCTION (AZ-AHR luciferase) of each item.
Give bare numbers, in fold.

Please review the entries below; each comes with its answer.
O=S(=O)(c1ccccc1)n1c(C(O)c2ccncc2)cc2ccccc21 (racemic) [FKK1] | 0.9
CCOCn1c(C(O)(Cc2cc3ccccc3[nH]2)c2ccncc2)cc2ccccc21 (racemic) [FKK9] | 15.9
OC(Cc1cc2ccccc2[nH]1)(c1ccncc1)c1cc2ccccc2[nH]1 (centres unmarked) [FKK10] | 1.3
CC#CC(O)(c1ccncc1)c1cc2ccccc2n1COCC (centres unmarked) [FKK4] | 1.2

Provide one value: measured FOLD INDUCTION (AZ-AHR luciferase) of O=S(=O)(c1ccccc1)n1c(C(O)Cc2cc3ccccc3[nH]2)cc2ccccc21 (racemic) [FKK8]
2.3

====

# tgt: PXR (Homo sapiens, UniProt O75469)
# Sequence (O75469 whole entry): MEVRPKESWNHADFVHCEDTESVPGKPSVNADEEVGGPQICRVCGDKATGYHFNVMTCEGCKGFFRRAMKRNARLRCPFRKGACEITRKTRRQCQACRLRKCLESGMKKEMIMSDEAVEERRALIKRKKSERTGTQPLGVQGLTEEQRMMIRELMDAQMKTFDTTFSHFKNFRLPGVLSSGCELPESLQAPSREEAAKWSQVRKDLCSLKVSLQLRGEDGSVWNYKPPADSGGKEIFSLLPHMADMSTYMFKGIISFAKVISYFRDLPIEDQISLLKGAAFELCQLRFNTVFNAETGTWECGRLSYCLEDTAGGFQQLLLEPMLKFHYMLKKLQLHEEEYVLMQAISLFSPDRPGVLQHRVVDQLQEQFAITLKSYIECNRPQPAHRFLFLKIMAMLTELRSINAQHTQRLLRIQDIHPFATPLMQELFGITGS
# assayExplanation: PXR reporter (p3A4-luc luciferase) assay in LS180 cells transiently transfected with wild-type PXR
# assaySetup: 1 uM
For each record, write down the corresponding aver (mean luciferase signal of H1-H4).
Answers are plain numbers.

CCOCn1c(C(O)(Cc2cc3ccccc3[nH]2)c2ccncc2)cc2ccccc21 (racemic) [FKK9] | 19145.3

Your task in this section: give aver (mean luciferase signal of H1-H4) for each listed record.
1. O=S(=O)(c1ccccc1)n1c(C(O)Cc2cc3ccccc3[nH]2)cc2ccccc21 (racemic) [FKK8]
2. OC(c1ccncc1)(c1cc2ccccc2[nH]1)c1cc2ccccc2[nH]1 [FKK2]
3. OC(Cc1cc2ccccc2[nH]1)(c1ccncc1)c1cc2ccccc2[nH]1 (centres unmarked) [FKK10]
4. Cc1[nH]c2ccccc2c1C(c1c(C)[nH]c2ccccc12)c1c(C)[nH]c2ccccc12 [FKK999, reference compound]
5. CC#CC(O)(c1ccncc1)c1cc2ccccc2n1S(=O)(=O)c1ccccc1 (racemic) [FKK3]
6. CC#CC(O)(c1ccncc1)c1cc2ccccc2n1COCC (centres unmarked) [FKK4]

1. 58017.5
2. 7365.5
3. 3689.5
4. 26021.5
5. 50228.8
6. 21392.8

Quick request: aver (mean luciferase signal of H1-H4) for each listed item, please.
1. O=S(=O)(c1ccccc1)n1c(C(O)c2ccncc2)cc2ccccc21 (racemic) [FKK1]
2. O=C(c1ccncc1)c1cc2ccccc2n1S(=O)(=O)c1ccccc1 [FKK5]
3. O=S(=O)(c1ccccc1)n1c(C(O)(Cc2cc3ccccc3[nH]2)c2ccncc2)cc2ccccc21 (racemic) [FKK7]
4. C#CCC(O)(c1ccncc1)c1cc2ccccc2n1S(=O)(=O)c1ccccc1 (centres unmarked) [FKK6]

1: 28708.8; 2: 29157.3; 3: 60156.8; 4: 73854.3

====

# tgt: PXR (Homo sapiens)
# assayExplanation: PXR reporter (p3A4-luc luciferase) assay in LS180 cells transiently transfected with wild-type PXR
# assaySetup: 10 nM, 24 h, over UT
Provide the reported FOLD INDUCTION of PXR reporter luciferase activity of each item.

Below, each entry is followed by its recorded FOLD INDUCTION of PXR reporter luciferase activity result.
O=S(=O)(c1ccccc1)n1c(C(O)(Cc2cc3ccccc3[nH]2)c2ccncc2)cc2ccccc21 (racemic) | 1.2 fold
OC(c1ccncc1)(c1cc2ccccc2[nH]1)c1cc2ccccc2[nH]1 | 1.4 fold
CCOCn1c(C(O)(Cc2cc3ccccc3[nH]2)c2ccncc2)cc2ccccc21 (racemic) | 1.2 fold
O=S(=O)(c1ccccc1)n1c(C(O)c2ccncc2)cc2ccccc21 (racemic) | 1.8 fold
O=S(=O)(c1ccccc1)n1c(C(O)Cc2cc3ccccc3[nH]2)cc2ccccc21 (racemic) | 1.1 fold

Dear colleague, could you send me FOLD INDUCTION of PXR reporter luciferase activity for each of the items below? Thanks.
1. CC#CC(O)(c1ccncc1)c1cc2ccccc2n1S(=O)(=O)c1ccccc1 (racemic)
2. OC(Cc1cc2ccccc2[nH]1)(c1ccncc1)c1cc2ccccc2[nH]1 (centres unmarked)

1: 1.7 fold; 2: 1.1 fold

Name the recorded FOLD INDUCTION of PXR reporter luciferase activity of the item CC#CC(O)(c1ccncc1)c1cc2ccccc2n1COCC (centres unmarked) in your answer.
1.3 fold

====

Give measured FOLD INDUCTION of PXR reporter luciferase activity for each item. Keep answers brief.
# tgt: PXR (Homo sapiens, UniProt O75469)
# assayExplanation: PXR reporter (p3A4-luc luciferase) assay in LS180 cells transiently transfected with wild-type PXR
# assaySetup: 10 uM, 24 h, over UT
Please append the unit to your numeric answer.

Some solved cases for reference:
OC(Cc1cc2ccccc2[nH]1)(c1ccncc1)c1cc2ccccc2[nH]1 (stereo not shown) | 4.8 fold
CC#CC(O)(c1ccncc1)c1cc2ccccc2n1COCC (stereo not shown) | 32.2 fold
O=S(=O)(c1ccccc1)n1c(C(O)c2ccncc2)cc2ccccc21 (racemic) | 26.3 fold

We now examine a further compound.
In one line, give reported FOLD INDUCTION of PXR reporter luciferase activity of the entry O=S(=O)(c1ccccc1)n1c(C(O)Cc2cc3ccccc3[nH]2)cc2ccccc21 (racemic) .
26.3 fold
